All figures here come from patent US12528802B2.

Below, each entry is listed with its recorded inhibition at 10 µM.
assay_system: glucosylceramide synthase (Homo sapiens)
Construct: made in house; host or cells: Expi293F cells (transient expression, pcDNA3.3-TOPO vector); microsome fraction used as enzyme source
Sequence (Q16739 whole entry): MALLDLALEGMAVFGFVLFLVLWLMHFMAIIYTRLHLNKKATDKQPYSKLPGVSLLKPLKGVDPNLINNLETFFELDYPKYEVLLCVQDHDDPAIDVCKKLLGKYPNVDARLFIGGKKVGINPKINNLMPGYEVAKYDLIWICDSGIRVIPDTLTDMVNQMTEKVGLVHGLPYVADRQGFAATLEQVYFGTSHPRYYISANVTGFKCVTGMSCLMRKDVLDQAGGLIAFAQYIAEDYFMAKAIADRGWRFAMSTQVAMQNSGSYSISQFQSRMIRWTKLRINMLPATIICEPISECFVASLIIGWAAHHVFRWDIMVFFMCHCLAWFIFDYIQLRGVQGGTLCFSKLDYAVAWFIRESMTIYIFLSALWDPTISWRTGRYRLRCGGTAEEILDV
measurement_notes: Glucosylceramide synthase (GCS) enzyme assay, microsome fraction, C8 glucosylceramide quantified by Rapidfire MS/MS
Format: biochemical
condition_parameters: test compound 10 μM; 1.7 μM UDP-glucose, 3 μM C8 ceramide; room temperature 60 min; read-out: GCS enzyme inhibitory rate at 10 μM (%) (% of control)
Only the number, expressed in %, is required.

Consider the worked cases shown below.
O=C1c2ccnc(-c3ccncc3OCC(F)(F)F)c2CN1c1ccc(F)cc1 :: 91
CC(C)(O)COc1ccc(N2Cc3c(ccnc3-c3ccccc3OCC(F)F)C2=O)cc1 :: 99
O=C1c2ccnc(-c3ccncc3OCC(F)(F)F)c2CN1c1ccc(C2(F)COC2)cc1 :: 99
N#Cc1ccc(N2Cc3c(ccnc3-c3ccccc3OCC(F)(F)F)C2=O)cc1 :: 87

# evaluate next
Record COC(=O)c1ccc(-c2nccc3c2CN(c2ccc(F)cc2)C3=O)c(OC(F)F)c1 . Reported inhibition at 10 µM: 83
